Biological target: P2X7 receptor (Homo sapiens)
Sequence (Q99572 1-595): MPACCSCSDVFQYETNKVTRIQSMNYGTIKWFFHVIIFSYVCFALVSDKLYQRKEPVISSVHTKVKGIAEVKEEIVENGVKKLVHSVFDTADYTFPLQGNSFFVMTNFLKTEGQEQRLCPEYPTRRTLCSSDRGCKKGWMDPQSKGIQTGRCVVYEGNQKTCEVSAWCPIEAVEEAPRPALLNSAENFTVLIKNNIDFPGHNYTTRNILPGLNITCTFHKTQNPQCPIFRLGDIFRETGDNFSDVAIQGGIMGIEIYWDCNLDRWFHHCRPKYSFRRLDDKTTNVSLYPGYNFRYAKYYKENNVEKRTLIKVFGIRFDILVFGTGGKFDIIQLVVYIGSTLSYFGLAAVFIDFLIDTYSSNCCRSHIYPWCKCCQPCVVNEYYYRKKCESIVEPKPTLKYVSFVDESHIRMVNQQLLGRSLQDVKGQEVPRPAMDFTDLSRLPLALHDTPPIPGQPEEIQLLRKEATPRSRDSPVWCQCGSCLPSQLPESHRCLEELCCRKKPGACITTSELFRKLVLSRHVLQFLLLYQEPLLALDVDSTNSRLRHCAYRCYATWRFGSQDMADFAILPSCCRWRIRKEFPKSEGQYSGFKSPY
Assay: YO-PRO-1 uptake assay
Format: cell-based
Design: expressed in transfected cells
Conditions: HEK-293 cells stably transfected with P2X7 receptor; Bz-ATP EC80 (30 μM); Low Divalent Cation Assay Buffer
Each item that follows carries a reported IC50.
assay.metric: IC50 (nM)

O=c1snc(Cc2c(F)cccc2Cl)n1CC1CCC(F)(F)CC1 :: 31
O=c1onc(Cc2c(F)cccc2Cl)n1CC1(F)CCCCC1 :: 523
O=c1onc(Cc2ccccc2Cl)n1Cc1ccc(F)cc1 :: 168
O=c1onc(Cc2c(F)cccc2Cl)n1CC1CCC(F)(F)CC1 :: 3.4
O=c1onc(Cc2ccccc2Cl)n1CC1CCCCC1 :: 143
O=c1onc(Cc2ccc(F)cc2F)n1CC1CCCCC1 :: 547

* * *

Molecular target: P2X7 receptor (Homo sapiens)
Experiment: Screen Quest Fluo-8 No Wash Calcium Assay (Bz-ATP evoked Ca2+ influx, FLIPR)
Assay type: cell-based
Set-up: hP2X7 (IC50; nM); other: hP2X7; HEK-293 cells stably transfected with P2X7 receptor, Bz-ATP at EC80, Fluo-8 NW; potency
Settings: hP2X7; HEK-293 cells stably transfected with P2X7 receptor, Bz-ATP at EC80, Fluo-8 NW; potency ranges A-D
assay.metric: IC50

O=c1onc(Cc2ccc(F)cc2)n1Cc1cc(F)ccc1Br [Example 5] :: 1000 to 10000 nM
CCn1c(Cc2c(F)cccc2Cl)noc1=O [Example 175] :: > 10000 nM
O=c1onc(Cc2c(F)cccc2Cl)n1CCC1CCCCC1 [Example 142] :: 200 to 1000 nM
O=c1onc(Cc2c(F)cccc2Cl)n1CC1CCC(F)(F)C1 (racemic) [Example 128] :: < 200 nM
CC(C)(c1c(F)cccc1Cl)c1noc(=O)n1Cc1ccc(F)cc1 [Example 77] :: > 10000 nM
COc1ccccc1Cn1c(Cc2c(F)cccc2Cl)noc1=O [Example 28] :: 1000 to 10000 nM
O=c1onc(Cc2c(F)cccc2Cl)n1CC12CCC(CC1)C2 [Example 91] :: < 200 nM
O=c1onc(CC2CCC(F)(F)CC2)n1Cc1ccc(C(F)(F)F)cc1 [Example 166] :: 1000 to 10000 nM
O=c1onc(Cc2c(F)cccc2Cl)n1Cc1cccnc1 [Example 42] :: > 10000 nM
O=c1onc(Cc2ccccc2C(F)(F)F)n1CC1CCC(F)(F)CC1 [Example 157] :: < 200 nM

* * *

Each item that follows carries a reported IC50.
Biological target: UniProt Q99572
Sequence (Q99572 1-595): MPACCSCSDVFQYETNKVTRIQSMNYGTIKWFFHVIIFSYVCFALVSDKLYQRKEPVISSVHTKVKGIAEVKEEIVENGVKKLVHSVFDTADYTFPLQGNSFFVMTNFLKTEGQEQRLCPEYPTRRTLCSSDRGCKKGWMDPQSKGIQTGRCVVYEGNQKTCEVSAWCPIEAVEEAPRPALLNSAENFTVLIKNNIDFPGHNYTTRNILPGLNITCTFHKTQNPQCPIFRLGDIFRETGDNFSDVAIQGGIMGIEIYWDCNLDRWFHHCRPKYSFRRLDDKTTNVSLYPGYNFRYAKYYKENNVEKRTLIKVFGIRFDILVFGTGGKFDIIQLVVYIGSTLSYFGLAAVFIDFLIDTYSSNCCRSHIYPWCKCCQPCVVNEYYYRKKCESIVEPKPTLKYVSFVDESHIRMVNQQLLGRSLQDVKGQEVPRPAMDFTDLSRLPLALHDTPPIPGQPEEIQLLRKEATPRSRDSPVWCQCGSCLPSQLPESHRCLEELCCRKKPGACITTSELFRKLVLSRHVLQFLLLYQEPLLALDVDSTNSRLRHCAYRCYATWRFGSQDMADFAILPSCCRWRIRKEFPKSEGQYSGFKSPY
Experiment: Screen Quest Fluo-8 No Wash Calcium Assay (Bz-ATP evoked Ca2+ influx, FLIPR)
Assay type: cell-based
Parameters: hP2X7 (IC50; nM); other: hP2X7; HEK-293 cells stably transfected with P2X7 receptor, Bz-ATP at EC80, Fluo-8 NW; potency
Conditions: hP2X7; HEK-293 cells stably transfected with P2X7 receptor, Bz-ATP at EC80, Fluo-8 NW; potency ranges A-D
assay.metric: IC50

O=c1onc(CC2CCC(F)(F)CC2)n1Cc1ncco1 :: 1000 to 10000 nM
O=c1onc(CC2CCC(F)(F)C2)n1Cc1c(F)cccc1Cl (stereo not shown) :: < 200 nM
O=c1onc(Cc2ccncc2)n1CC1CCCCC1 :: > 10000 nM
Cn1ccnc1Cn1c(Cc2c(F)cccc2Cl)noc1=O :: > 10000 nM
O=c1onc(CCc2c(F)cccc2Cl)n1Cc1ccc(F)cc1 :: 200 to 1000 nM
Cc1ncccc1Cn1c(Cc2c(F)cccc2Cl)noc1=O :: > 10000 nM
CCCOCn1c(Cc2c(F)cccc2Cl)noc1=O :: 1000 to 10000 nM
O=c1onc(Cc2c(F)cccc2Cl)n1Cc1ccccc1Cl :: 1000 to 10000 nM
O=c1onc(CC2CCC(F)(F)CC2)n1Cc1nccs1 :: 1000 to 10000 nM
COc1ccc(Cc2noc(=O)n2CC2CCCCC2)cc1 :: 1000 to 10000 nM

* * *

Each item that follows carries a reported IC50.
Biological target: P2X7 receptor (Mus musculus)
Construct: mP2X7 (IC50; nM); other: mP2X7; HEK-293 cells stably transfected with P2X7 receptor, Bz-ATP at EC80, Fluo-8 NW; potency
Sequence (Q9Z1M0 whole entry): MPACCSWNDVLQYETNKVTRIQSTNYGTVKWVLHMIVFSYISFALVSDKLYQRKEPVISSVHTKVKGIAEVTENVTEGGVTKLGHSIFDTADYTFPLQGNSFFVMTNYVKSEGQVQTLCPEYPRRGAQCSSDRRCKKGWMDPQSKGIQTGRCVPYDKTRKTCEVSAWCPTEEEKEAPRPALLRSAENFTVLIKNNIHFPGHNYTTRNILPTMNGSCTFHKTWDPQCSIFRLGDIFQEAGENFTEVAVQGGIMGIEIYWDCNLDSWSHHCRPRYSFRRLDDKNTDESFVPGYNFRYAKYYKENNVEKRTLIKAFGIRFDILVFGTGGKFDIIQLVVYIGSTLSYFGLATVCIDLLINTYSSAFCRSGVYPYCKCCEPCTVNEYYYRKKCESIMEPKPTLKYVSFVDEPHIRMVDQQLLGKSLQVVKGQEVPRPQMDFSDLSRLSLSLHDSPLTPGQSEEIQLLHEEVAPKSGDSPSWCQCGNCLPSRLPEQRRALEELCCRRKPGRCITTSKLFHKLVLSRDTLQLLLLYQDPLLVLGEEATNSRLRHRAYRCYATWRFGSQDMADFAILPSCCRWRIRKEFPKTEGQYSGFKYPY
Assay: Screen Quest Fluo-8 No Wash Calcium Assay (Bz-ATP evoked Ca2+ influx, FLIPR)
Format: cell-based
Details: mP2X7; HEK-293 cells stably transfected with P2X7 receptor, Bz-ATP at EC80, Fluo-8 NW; potency ranges A-D
Protocol: Extracellular binding of Bz-ATP to P2X7 receptor opens the channel and allows Ca2+ influx into the cells. […] Its fluorescence increases upon binding to calcium. HEK-293 cells stably transfected with P2X7 receptor were seeded overnight in growth medium at 10,000 to 20,000 cell/well in 384-well plate. […] Then 10 μL/w of tests compounds and reference antagonist A438079 at 3×-concentration were injected with the […] and the kinetic response over a period of five minutes was monitored. […]
assay.metric: IC50

O=c1onc(Cc2c(F)cccc2Cl)n1Cc1cccc2ccccc12 :: 1000 to 10000 nM
Cc1nn(C)c(C)c1Cc1noc(=O)n1Cc1c(F)cccc1Cl :: > 10000 nM
COc1ccccc1Cn1c(Cc2c(F)cccc2Cl)noc1=O :: 1000 to 10000 nM
CC(C)Cn1c(Cc2c(F)cccc2Cl)noc1=O :: > 10000 nM
O=c1onc(CN2CCCCC2)n1Cc1c(F)cccc1Cl :: 200 to 1000 nM
O=c1onc(Cc2c(F)cccc2Cl)n1Cc1cccc2ncccc12 :: 1000 to 10000 nM
O=c1onc(Cc2ccc(Cl)cc2Cl)n1CC1CCC(F)(F)CC1 :: 200 to 1000 nM
O=c1onc(Cc2ccccc2C(F)(F)F)n1Cc1ccc(F)cc1 :: 1000 to 10000 nM
O=c1onc(Cc2c(F)cccc2Cl)n1CC1CCC(F)(F)C1 (single isomer, unassigned) [Example 148] :: 200 to 1000 nM
CC1CC(F)(F)CCN1Cc1noc(=O)n1Cc1c(F)cccc1Cl (centres unmarked) :: < 200 nM
O=c1onc(Cc2c(F)cccc2Cl)n1CC1CCC1 :: 1000 to 10000 nM
CC1CC(F)(F)CCN1Cc1noc(=O)n1Cc1ccc(F)cc1 (centres unmarked) :: 1000 to 10000 nM
O=c1onc(Cc2ccccc2C(F)(F)F)n1CC1CCC(F)(F)CC1 :: 200 to 1000 nM
O=c1onc(Cc2c(F)cccc2Cl)n1CC1CCCC1 :: 200 to 1000 nM
O=c1onc(Cc2ccccc2)n1Cc1ccc(F)cc1 :: 1000 to 10000 nM
O=c1onc(Cc2c(F)cccc2Cl)n1Cc1ncccn1 :: > 10000 nM
COc1cccc(Cc2noc(=O)n2CC2CCC(F)(F)CC2)c1 :: 1000 to 10000 nM
CC(c1ccc(F)cc1)n1c(CC2CCC(F)(F)CC2)noc1=O (centres unmarked) :: 1000 to 10000 nM
O=c1onc(Cc2ccc(F)cc2)n1Cc1cccc(Cl)c1Cl :: > 10000 nM
O=c1onc(Cc2c(F)cccc2Cl)n1Cc1ccccc1F :: 1000 to 10000 nM
Cc1ccc(Cn2c(Cc3c(F)cccc3Cl)noc2=O)cc1 :: 1000 to 10000 nM
O=c1onc(CC2CCC(F)(F)CC2)n1Cc1cncs1 :: 1000 to 10000 nM
O=c1onc(CC2CCC(F)(F)CC2)n1Cc1ccno1 :: 1000 to 10000 nM
CC(c1ccccc1)n1c(Cc2ccc(F)cc2)noc1=O (centres unmarked) :: > 10000 nM
O=c1onc(Cc2c(F)cccc2Cl)n1CC1(F)CCCCC1 :: 200 to 1000 nM
Cc1nn(C)c(C)c1Cc1noc(=O)n1Cc1ccc(F)cc1 :: > 10000 nM
O=c1onc(Cc2ccccc2F)n1CC1CCC(F)(F)CC1 :: 200 to 1000 nM
O=c1onc(Cc2c(F)cccc2Cl)n1CCC1CCCCC1 :: 200 to 1000 nM
O=c1onc(Cc2c(F)cccc2Cl)n1CC1CCCCC1(F)F (centres unmarked) :: 200 to 1000 nM
O=c1onc(CC2CCC(F)(F)CC2)n1Cc1ccc(C(F)(F)F)o1 :: 200 to 1000 nM
O=c1onc(Cc2ccccn2)n1CC1CCCCC1 :: > 10000 nM
CCn1c(Cc2c(F)cccc2Cl)noc1=O :: > 10000 nM
O=c1onc(Cc2ccc(F)cc2Cl)n1CC1CCC(F)(F)CC1 :: > 10000 nM
COc1ccc(Cc2noc(=O)n2CC2CCCCC2)cc1 :: 1000 to 10000 nM
O=c1onc(Cc2ccc(F)cc2F)n1Cc1c(F)cccc1Cl :: 1000 to 10000 nM
O=c1onc(CN2CCC(F)(F)CC2)n1CC1CCCCC1 :: 1000 to 10000 nM
CC(c1ccc(F)cc1)n1c(Cc2c(F)cccc2Cl)noc1=O (centres unmarked) :: 200 to 1000 nM
O=c1onc(Cc2ccc(F)cc2)n1Cc1ccc(F)cc1Cl :: 1000 to 10000 nM
O=c1onc(Cc2cccc(F)c2)n1CC1CCCCC1 :: 1000 to 10000 nM
Cc1ccccc1Cn1c(Cc2c(F)cccc2Cl)noc1=O :: 1000 to 10000 nM
O=c1onc(CC2CCCCC2)n1Cc1ccc(F)cc1 :: 1000 to 10000 nM
